Reference source for all entries: patent US20190218553

measured-on: von Willebrand factor (VWF) (Homo sapiens, UniProt P04275 P04275:764-2813)
assay-method-text: filter; NB; loop CAGA mutated; 2 mM CaCl2, 37 C
test-context: tags: factor VIII free, Haematologic Technologies Inc; label: 5'-32P
metric: binding result

Illustrative cases are given below, each with its answer.
ACGAACUGCCCUCUAUUAUUUGACGCACCCCCGU (ssRNA, 2'-F C and U; 2'-OH A and G; 3' idT) [T99] = no binding
ACGAACUGCCCUCUUUUUUGACGCACCCCCGU (ssRNA, 2'-F C and U; 2'-OH A and G; 3' idT) [T101] = no binding
ACGAACUGCCCUCUUUCAUGACGCACCCCCGU (ssRNA, 2'-F C and U; 2'-OH A and G; 3' idT) [T98] = no binding
ACGAACUGCCCUCUUUUUUUUGACGCACCCCCGU (ssRNA, 2'-F C and U; 2'-OH A and G; 3' idT) [T96] = no binding

## Input Give binding result for ACGAACUGCCCUCGUUUCAUCGACGCACCCCCGU (ssRNA, 2'-F C and U; 2'-OH A and G; 3' idT) [T97]
## Output no binding
